Origin of measurements: the Deep4Chem optical property database

Exercise: state measured absorption maximum for each of the compounds provided.
- method: solvent given as SMILES
- setupConditions: in CCOCC
One number for each entry, in nm.

- CCC1(CC)c2cc(C=O)ccc2-c2ccc(N(C)C)cc21: 379

Hi there! I need absorption maximum for each item below, if you can.
1. c1ccc(-c2nc(-c3ccc(-c4nc(-c5ccccc5)c(-c5ccccc5)[nH]4)cc3)[nH]c2-c2ccccc2)cc1
2. Oc1cccc(/N=C/c2ccccc2Oc2ccccc2)c1
3. c1ccc(-c2ccc(-c3ccc(-n4c5ccccc5c5ccccc54)cc3)c3nsnc23)cc1
4. CCCCCCCCCCCCCCCCOc1cc(C#Cc2ccc3ccccc3c2-c2c(C#Cc3cc(OCCCCCCCCCCCCCCCC)c(C#Cc4ccc(C=C(C#N)C#N)cc4)cc3OCCCCCCCCCCCCCCCC)ccc3ccccc23)c(OCCCCCCCCCCCCCCCC)cc1C#Cc1ccc(C=C(C#N)C#N)cc1
5. COc1ccc(-c2nc(C(C)=O)c(C)o2)cc1

1: 359; 2: 327; 3: 392; 4: 429; 5: 276

// batch mode: one absorption maximum value per listed entry
1. CC(C)[Si]1(C(C)C)c2ccccc2-c2ccc(N(C)C)cc21
2. CN(C)c1ccc(/C=C/C=C2\CCCC2=O)cc1
3. CN(C)c1ccc2c(c1)C(=O)NC2=O

1. 318
2. 399
3. 371

Record absorption maximum for all entries; do not skip any.
1. N#Cc1ccc(-n2cccc2)cc1
2. CC(C)[Si]1(C(C)C)c2cc(C=O)ccc2-c2ccc(N(C)C)cc21

1: 287; 2: 384
